B1: Hairpin Ribozyme (parent)
chain: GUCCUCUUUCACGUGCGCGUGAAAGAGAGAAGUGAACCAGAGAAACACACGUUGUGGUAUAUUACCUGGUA

Variants of: B1
Test: self-cleavage, relative activity (ratio to wild type); higher = more cleavage; co-transcriptional
Kindly return y if reported self-cleavage is no lower than 0.2; return n if it is lower.

Example results:
G15U A26C; y
G15C C46U; n
C50A G68C; n
U20G U67C; n
A47G U60G; n

Query block: In plain terms: is recorded self-cleavage at least 0.2 for C16G A71C ?
Result block: y

Query block: In plain terms: is recorded self-cleavage at least 0.2 for A11U G15C ?
Result block: y

Query block: In plain terms: is recorded self-cleavage at least 0.2 for A47U G54C ?
Result block: n

Query block: In plain terms: is recorded self-cleavage at least 0.2 for U2A C50G ?
Result block: n

Query block: In plain terms: is recorded self-cleavage at least 0.2 for U2C C18A ?
Result block: n

Query block: In plain terms: is recorded self-cleavage at least 0.2 for A22C G27A ?
Result block: y

Query block: In plain terms: is recorded self-cleavage at least 0.2 for A23C U53A ?
Result block: y

Query block: In plain terms: is recorded self-cleavage at least 0.2 for C4G A36G ?
Result block: y

Query block: In plain terms: is recorded self-cleavage at least 0.2 for G32A A39U ?
Result block: n

Query block: In plain terms: is recorded self-cleavage at least 0.2 for G25A A61G ?
Result block: y
